protocol-description: qHTS assay to test for compound auto fluorescence at 590 nm (red) in HepG2 cells (AID 720674)
measurement-parameters: HepG2 autofluorescence, red 540/590 nm, 1 h; series mostly up to 91.3 µM
Activity calls are given as the source filed them. The call rests on the fitted dose curve; in most records, active means well fitted curve in the direction sought with a large enough effect in the repeat runs; inconclusive means weak or mixed curves; inactive means flat fitted curve, though single readings scatter.
measured-quantity: outcome

Look over these answered cases.
Clc1ccccn1; inactive
CC(CCO)CC(C)(C)C (configuration not stated); inactive
Brc1ccc(Br)c(Br)c1; inactive
NCCN1CCNCC1; inactive
O=c1[nH]cnc2[nH]ncc12; inactive

Batch: outcome for all items listed.
1. CCNc1cccc(C)c1
2. CCCCCCC=O

1. inactive
2. inactive

Provide outcome for all items below, preserving their order.
1. CCCCCCCCCCCC(=O)OC
2. C=CCCCCCCCCC(=O)O

["inactive", "inactive"]

Dear colleague, could you send me outcome for each of the items below? Thanks.
1. COCCOC(=O)c1ccccc1C(=O)OCCOC
2. Cc1ccc([N+](=O)[O-])cc1S(=O)(=O)O
3. OCc1ccccc1
4. CCOCC(=O)O
5. CN1C(=O)CC[C@H]1c1cccnc1
6. CC(=O)OCc1ccccc1
7. COC(=O)CCCC(=O)OC

1. inactive
2. inactive
3. inactive
4. inactive
5. inactive
6. inactive
7. inactive

###

protocol-description: qHTS assay to test for compound auto fluorescence at 535 nm (green) in HepG2 cells (AID 720675)
measurement-parameters: green autofluorescence 485/535 nm, 1 h; series mostly up to 91.3 µM
Activity calls are given as the source filed them. Calls follow the shape of the dose curve; as a rule, active = well fitted curve in the direction sought with a large enough effect in the repeat runs; inconclusive = weak or mixed curves; inactive = flat fitted curve, though single readings scatter.
measured-quantity: outcome

# annotated cases, reported outcome shown
COCCCN; inactive
CCCCCCC=O; inactive
COc1ccccc1OCC(O)CO (stereo not given); inactive
CC(C)CC(=O)CC(C)CC(C)C (stereo not given); inactive
CC(=O)Oc1ccc(C)cc1; inactive
NC(=S)NNC(N)=S; inactive

For each of the molecules below, note its outcome.
1. C[C@]12CC[C@@H]3c4ccc(O)cc4CC[C@H]3[C@@H]1C[C@@H](O)[C@@H]2O
2. O=S(=O)(O)c1ccc(N=Nc2c(O)ccc3cc(S(=O)(=O)O)ccc23)cc1
3. CCc1ccccc1CC
4. CCCCCCO
5. C[C@]12CCC(=O)C=C1CC[C@@H]1[C@@H]2[C@@H](O)C[C@@]2(C)[C@H]1CC[C@]2(O)C(=O)CO

1: inactive; 2: inactive; 3: inactive; 4: inactive; 5: inactive

Record outcome for all entries; do not skip any.
1. CCOCC(=O)O
2. CC(O)CC(C)(C)O (stereo not given)

["inactive", "inactive"]

// each molecule listed below needs its outcome
1. Cc1ccc([N+](=O)[O-])cc1S(=O)(=O)O
2. O=C(OCC1CCC2OC2C1)C1CCC2OC2C1 (stereo not given)

1. inactive
2. inactive

###

protocol-description: qHTS assay for identifying genotoxic compounds that show differential cytotoxicity against isogenic chicken DT40 cell lines with known DNA damage response pathways - Rev3 mutant cell line (AID 743014); further: nearly all actives have a fitted effect of over 55% in size
measurement-parameters: chicken DT40 Rev3-/- viability, CellTiter-Glo, 40 h; series mostly up to 68.4 µM
Results filed as inconclusive are left out. The source made the active and inactive calls. Calls follow the shape of the dose curve; as a rule, active = well fitted cell-killing curve with a large enough effect in the repeat runs; inconclusive = weak or mixed curves, or effect the other way; inactive = no such curve, though single readings can be large or run the other way.
Choose the fitting class; nothing outside y (active), n (inactive) is accepted.

Cc1ccc(S(=O)(=O)N=C=O)cc1; n
COc1ccc(N)c(C)c1; n
CSc1ccc(Cl)cc1; n
CCCCCCCCCCCC(=O)OC; n
Nc1nc(N)nc(-c2ccccc2)n1; n

Per the records of this test, what outcome belongs to `CCc1ccccc1CC` ?
n

Returns: the outcome recorded for `OCc1ccccc1` in this assay.
n

Name the outcome recorded for `CC(=O)CC(C)(C)O` in the assay.
n

Given `CC(C)(C#N)c1cc(Cn2cncn2)cc(C(C)(C)C#N)c1` , state the outcome it received in this test.
n

Called result for `Cc1ccc([N+](=O)[O-])cc1S(=O)(=O)O`
n

Lab log entry: `C[Si]1(C)O[Si](C)(C)O[Si](C)(C)O[Si](C)(C)O1` — outcome as called in the assay?
n

GET /call?item= `CCO[Si](CCC#N)(OCC)OCC` returns the recorded outcome of this test.
n

Hello, I am checking results. What call was entered for `CC(C)(Oc1ccc(CCNC(=O)c2ccc(Cl)cc2)cc1)C(=O)O` ?
n

For `C=CCc1ccc(OC)c(OC)c1` , which call appears in the assay record?
n

Recorded test outcome, item `C=C(C)[C@H]1CC=C(C)C(=O)C1`
n

Recorded call for CC(CCO)CC(C)(C)C (configuration not stated) ?
n

Hello, I am checking results. What call was entered for `Nc1ccc(Cl)c(N)c1` ?
n

###

protocol-description: qHTS RealTime-Glo MT Cell Viability Assay in HEK293 cells - 16 hour (AID 1224872); further: top concentration of the series differs between compounds; nearly all actives have a fitted effect of over 50% in size
measurement-parameters: RealTime-Glo luminescence; series mostly up to 76.8 µM
Results filed as inconclusive are left out. Activity calls are given as the source filed them. The call rests on the fitted dose curve; in most records, active means well fitted cell-killing curve with a large enough effect in the repeat runs; inconclusive means weak or mixed curves, or effect the other way; inactive means flat fitted curve, though single readings scatter.
measured-quantity: outcome

c1ccc2c(c1)Cc1ccccc1-2; inactive
CCCCCCCC=O; inactive
Clc1ccccn1; inactive
Cc1ccc([N+](=O)[O-])cc1S(=O)(=O)O; inactive
C=CC(C)CCCC(C)(C)O (stereo not given); inactive
CN(C)c1ccc(O)c2c1C[C@H]1C[C@H]3[C@H](N(C)C)C(=O)C(C(N)=O)=C(O)[C@@]3(O)C(=O)C1=C2O; inactive
CCCCCCCCCCN; inactive
CC(C)CCCCCCCOC(=O)CCCCC(=O)OCCCCCCCC(C)C; inactive

# per-item lookup of outcome; items listed below
1. CC(C)(Oc1ccc(CCNC(=O)c2ccc(Cl)cc2)cc1)C(=O)O
2. CCCCCCO

1. inactive
2. inactive

For each entry beneath this line, provide reported outcome.
1. O=S(=O)(O)c1ccccc1
2. O=C(O)CCCCCCCCC(=O)O
3. C=Cc1ccc(C)cc1
4. COC(=O)CCCC(=O)OC
5. Brc1ccc(Br)c(Br)c1

1: inactive; 2: inactive; 3: inactive; 4: inactive; 5: inactive

###

protocol-description: A CellTox Green Cytotoxicity Assay to monitor cytotoxicity in HepG2 cells - 40 hour (AID 1224879); further: nearly all actives have a fitted effect of over 40% in size
measurement-parameters: CellTox Green fluorescence; series mostly up to 76.8 µM
Records with an inconclusive call do not appear. Calls of active or inactive are those of the source. The call rests on the fitted dose curve; in most records, active means well fitted activation curve with a large enough effect in the repeat runs; inconclusive means weak or mixed curves; inactive means flat fitted curve, though single readings scatter.
measured-quantity: outcome

CCNc1ccccc1; inactive
CCCCCCCC=O; inactive
N[C@H](Cc1c[nH]c2ccccc12)C(=O)O; inactive

###

study-target: Progesterone receptor (Homo sapiens)
protocol-description: qHTS assay to identify small molecule antagonists of the progesterone receptor (PR) signaling pathway (AID 1346795)
measurement-parameters: PR-UAS-bla HEK293T, beta-lactamase FRET ratio, 16 h; series mostly up to 92.4 µM
Inconclusive results are not listed. Activity calls are given as the source filed them. The call rests on the fitted dose curve; in most records, active means well fitted inhibition curve with a large enough effect in the signal ratio in the repeat runs (not every such curve was filed as active); inconclusive means weak or mixed curves; inactive means flat fitted curve, though single readings scatter; the % refers to the signal ratio.
The categories you may choose from are active, inactive

Solved cases (5 shown):
Brc1ccc(Br)c(Br)c1; inactive
CC1(C)OC[C@@H]2O[C@@]3(C(=O)O)OC(C)(C)O[C@H]3[C@@H]2O1; inactive
CCCCCCCO; inactive
O=S(=O)(O)c1ccccc1; inactive
NCCNCCN; inactive

What was the test verdict on `CCO[Si](CCCN)(OCC)OCC` ?
inactive

Recorded test outcome, item `CCOCCOCCOCCO`
inactive

In this assay, the call recorded for CC(=O)OC1CC(C)OC(C)O1 (stereo unspecified) was what?
inactive

Recorded test outcome, item `O=C1C(c2[nH]c3ccccc3c2O)=Nc2ccccc21`
inactive

What outcome does the record of this test show for CC(C)CC(C)O (stereo unspecified) ?
inactive

Please indicate how the test categorized `CCCCCCCCCCCCCCCC(=O)OC(C)C` .
inactive

###

protocol-description: qHTS assay to test for compound auto fluorescence at 590 nm (red) in HepG2 cell free culture (AID 720684)
measurement-parameters: cell-free medium autofluorescence, red 540/590 nm; series mostly up to 91.3 µM
Active and inactive are the calls of the source. Calls come from the whole dose curve; as a rule, active = well fitted curve in the direction sought with a large enough effect in the repeat runs; inconclusive = weak or mixed curves; inactive = flat fitted curve, though single readings scatter.
measured-quantity: outcome

CN(C)c1ccc(O)c2c1C[C@H]1C[C@H]3[C@H](N(C)C)C(=O)C(C(N)=O)=C(O)[C@@]3(O)C(=O)C1=C2O; inactive
CCOC(=O)n1ccn(C)c1=S; inactive
O=c1[nH]cnc2[nH]ncc12; inactive
CCNc1cccc(C)c1; inactive

Please examine the following record next.
Data point: `Nc1nc(N)nc(-c2ccccc2)n1` ; outcome = inactive

###

protocol-description: qHTS RealTime-Glo MT Cell Viability Assay in HepG2 cells - 24 hour (AID 1224867); further: nearly all actives have a fitted effect of over 50% in size
measurement-parameters: RealTime-Glo luminescence; series mostly up to 76.8 µM
Inconclusive results are not listed. Active and inactive are the calls of the source. Calls follow the shape of the dose curve; as a rule, active = well fitted cell-killing curve with a large enough effect in the repeat runs; inconclusive = weak or mixed curves; inactive = flat fitted curve, though single readings scatter.
measured-quantity: outcome

Study these solved cases before continuing.
CCCCOC(=O)c1ccc(N)cc1; inactive
CC(C)(Oc1ccc(CCNC(=O)c2ccc(Cl)cc2)cc1)C(=O)O; inactive
C=CC[N+](C)(C)CC=C; inactive
CCCCCCCCCCCCCCCCO; inactive
C=C(C)[C@H]1CC=C(C)C(=O)C1; inactive
OC1C(O)C(O)C(O)C(O)C1O (configuration not stated); inactive
CC(C)CC(C)O (configuration not stated); inactive
CCCCCC(=O)O; inactive
CCO[Si](CCCN)(OCC)OCC; inactive
COCCCN; inactive

Go through the items and report each one's outcome.
1. C=C(C)CNCC
2. O=C(O)c1ccc(C(=O)O)c(C(=O)O)c1
3. Cc1ccc2ncccc2c1
4. O=C1CCCC1

1. inactive
2. inactive
3. inactive
4. inactive
